Tested on: Zika virus NS2B-NS3 protease (linked construct)
Experiment: Primary screen NINDS Rhodamine qHTS for Zika virus inhibitors (AID 1347160); note: nearly all actives have a fitted effect of over 55% in size
Settings: purified NS2B-NS3 protease, Rhodamine110 substrate fluorescence; series mostly up to 57.1 µM
Records with an inconclusive call do not appear. Calls of active or inactive are those of the source. Calls come from the whole dose curve; as a rule, active = well fitted inhibition curve with a large enough effect; inconclusive = small, poorly fitted or top-dose-only effect; inactive = no such curve, though single readings can be large or run the other way.
Answer with one of the outcomes given here: yes (1) for active, no (0) for inactive

molecule	group label
COc1cc2ncc(-c3ccccc3)nc2cc1OC	no (0)
COC(CCc1ccc(O)cc1)CC(=O)CCc1ccc(O)cc1 (centres undefined)	no (0)
CC(C)Oc1ccc(-c2cnc3c(-c4ccnc5ccccc45)cnn3c2)cc1	no (0)
CC(=O)c1ccc2c(c1)[C@H](NC(=O)c1ccc(F)c(Cl)c1)[C@H](O)C(C)(C)O2	no (0)
C=C1C(=O)O[C@@H]2[C@H]1CCC(C)=C(CCC(=O)O)[C@@]2(C)O	no (0)
CC(C)(C)c1ccc(NC(=O)N2CCN(c3ncccc3Cl)CC2)cc1	no (0)

Entry `C=C1C(=O)O[C@@H]2C[C@@]3(C)CCCC(=C)[C@]3(O)C[C@H]12` : call = ?
no (0)

Write down the call the test reported for this molecule. Item: C=CC(C)(O)CC[C@@H]1[C@@]2(C)CCCC(C)(C)C2CC[C@@]1(C)O (some centres undefined)
no (0)

Lab log entry: `CC(=O)NC[C@H]1CN(c2ccc(N3CCSCC3)c(F)c2)C(=O)O1` — outcome as called in the assay?
no (0)

I would be grateful if you could indicate the recorded call for `COc1ccc(N(C(=O)Nc2c(C)cccc2C)c2cc(Nc3ccc(N4CCN(C)CC4)cc3)ncn2)c(OC)c1` .
no (0)

Hi, sorry to bother you, what did the test record for `C=C1C(=O)O[C@@H]2/C=C(\CO)CC/C=C(/C=O)C[C@@H](O)[C@@H]12` ?
no (0)
